- Tested on: MOLT-4
- ASSAY METHOD TEXT: NCI tumour cell line growth inhibition, 48 h
The source made the active and inactive calls. Rule as the data show it: active = GI50 up to about 1.1 µM and inactive = higher.
Result category, one only: active, inactive

The following molecules have reported results that may help.
1) COC(=O)c1scc(N)c1-n1ccc(=O)[nH]c1=O; inactive
2) CC(CC[C@@H](O)C(C)(C)O)C1[C@@H](O)CC2(C)C3CC(O)C4C(C)(C)[C@@H](OC5OC(CO)C(O)C(O)C5O)CC[C@@]45C[C@@]35CC[C@]12C (some centres not stated); inactive
3) O=[N+]([O-])c1cccc(C2=NN(c3ccccc3)C3c4ccccc4OCC23)c1 (configuration not stated); inactive
4) CC1(C)CC(=O)C2=C(C1)OC1=C(CC(C)(C)CC1=O)C2c1ccccc1[N+](=O)[O-] (configuration not stated); inactive
5) ClCCCC1COc2ccccc2O1 (configuration not stated); inactive

Okay, next one:
Lookup: What did the test return for "Cn1c(=O)nc2n(CCO)c(-c3ccccc3)c(-c3ccccc3)nc-2c1=O" ?
Found: inactive

---

- Tested on: COLO 205
- ASSAY METHOD TEXT: NCI tumour cell line growth inhibition, 48 h
Active and inactive are the calls of the source. Rule as the data show it: active = GI50 up to about 1.1 µM and inactive = higher.
REPORTED PROPERTY: GI50

Solved cases (8 shown):
1. O=S(=O)(O)c1ccc(/N=N/c2ccccc2)cc1; > 100 µM (inactive)
2. O=c1c2cc3c(cc2c2cccc4c2n1CCC4)OCO3; 26.3 µM (inactive)
3. Cc1cc(Br)ccc1NC1=CC(=O)C(=O)c2ccccc21; 31.6 µM (inactive)
4. c1ccc(C(NC2=NCCO2)c2ccccc2)cc1; > 10 µM (inactive)
5. C/C(=C\CO)CC/C=C(\C)CNc1ccccc1; 41.2 µM (inactive)
6. COc1ccccc1NC(=O)C(CC(C(=O)Nc1ccccc1OC)/C(C)=N/NC(=O)c1ccccc1O)/C(C)=N/NC(=O)c1ccccc1O (stereo unspecified); > 100 µM (inactive)
7. CCOC(=O)Cc1nc2c(N)ncnc2n1C1OC(COC(C)=O)C(OC(C)=O)C1OC(C)=O (stereo unspecified); > 100 µM (inactive)
8. CCSc1nn(-c2c3ccccc3nc3ccccc23)c(=S)s1; > 100 µM (inactive)

Lookup: // lookup GI50 for CC1CCCC(C(=O)CC2CC(=O)NC(=O)C2)C1=O (stereo unspecified)
Found: > 100 µM (inactive)

Lookup: // lookup GI50 for "O=P1(O)c2ccccc2CSCc2ccccc21"
Found: > 100 µM (inactive)

Lookup: // lookup GI50 for NC(=S)N1N=C(c2ccccc2O)CC1c1ccccc1 (stereo unspecified)
Found: 8.97 µM (inactive)

---

Reported GI50 values for a set of molecules
- Tested on: PC-3
- ASSAY METHOD TEXT: NCI tumour cell line growth inhibition, 48 h
Activity calls are given as the source filed them. No stated cut-off is given here; in the data, active = GI50 up to about 1.1 µM and inactive = higher.

Solved cases (5 shown):
1. O=C1C=C/C(=N\N=C(c2ccccc2)c2ccccc2)O1; > 10 µM (inactive)
2. CCC1(O)C(=O)OCc2c1cc1n(c2=O)Cc2cc3c(N)cccc3nc2-1 (centres undefined) [RS-9-Aminocamptothecin]; 0.115 µM (active)
3. CC(=O)C1CC[C@@H]2[C@H](CC[C@]3(C)[C@@H](O)CC[C@@H]23)[C@H]1C(=O)O (some centres undefined); > 100 µM (inactive)
4. COC(=O)C(NC(=O)C12CCC(C)(C(=O)O1)C2(C)C)c1cc(C(C)(C)C)c(O)c(C(C)(C)C)c1 (centres undefined); 67 µM (inactive)
5. O=c1[nH]nc(Cc2ccc(Cl)cc2)n1CCO; > 100 µM (inactive)

Lookup: Fill in the recorded GI50 for this molecule, with PC-3 as test system: "CNC(=O)N(CCC#N)[C@H]1CCCC[C@@H]1N(C(=O)NC)c1ccccc1"
Found: > 100 µM (inactive)

Lookup: Fill in the recorded GI50 for this molecule, with PC-3 as test system: "COc1ccc(N2C(=O)/C(=C/c3ccc(N(CCC#N)CCC#N)cc3C)N=C2c2cc([N+](=O)[O-])ccc2Cl)cc1"
Found: 4.7 µM (inactive)

---

- Test system: SW-620
- ASSAY METHOD TEXT: NCI tumour cell line growth inhibition, 48 h
The source made the active and inactive calls. Rule as the data show it: active = GI50 up to about 1.1 µM and inactive = higher.
REPORTED PROPERTY: GI50

1) CC(=O)CC1(OC(=O)C2C(C=C(C)C)C2(C)C)C(=O)Nc2ccccc21 (stereo not given); > 100 µM (inactive)

Lookup: // lookup GI50 for "O=[N+]([O-])c1ccc2[nH]c3c(-c4ccccc4)nccc3c2c1"
Found: 36 µM (inactive)

Lookup: // lookup GI50 for "O=c1c2cc3c(cc2c2cccc4c2n1CCC4)OCO3"
Found: 29.4 µM (inactive)

Lookup: // lookup GI50 for "COC(=O)C1=C(c2cc(OC)c(OC)c(OC)c2)O[C@H](c2ccc3c(c2)OCO3)[C@H]1COC(C)=O"
Found: 25.2 µM (inactive)

Lookup: // lookup GI50 for "C(/C=N/N=C1NCCN1)=N\N=C1NCCN1"
Found: > 100 µM (inactive)

---

- System: MOLT-4
- ASSAY METHOD TEXT: NCI tumour cell line growth inhibition, 48 h
Calls of active or inactive are those of the source. No stated cut-off is given here; in the data, active = GI50 up to about 1.1 µM and inactive = higher.
REPORTED PROPERTY: GI50

Lookup: // lookup GI50 for "Cc1cc(Br)ccc1NC1=CC(=O)C(=O)c2ccccc21"
Found: 39.4 µM (inactive)

Lookup: // lookup GI50 for "c1ccc(-c2cs[s+]c2)cc1"
Found: 26.5 µM (inactive)

Lookup: // lookup GI50 for "CCC(=O)Nc1ccc(NS(=O)(=O)c2ccc(Cl)cc2)cc1"
Found: 34.5 µM (inactive)

Lookup: // lookup GI50 for "CSc1[nH]nc(N)c1C(=O)Nc1ccc(C)cc1"
Found: 26.2 µM (inactive)

Lookup: // lookup GI50 for "COc1ccc(/C(C#N)=C/c2ccc(OC)c(OC)c2)cc1"
Found: > 100 µM (inactive)

Lookup: // lookup GI50 for "CCSc1nn(-c2c3ccccc3nc3ccccc23)c(=S)s1"
Found: > 100 µM (inactive)

---

- Tested on: TK-10
- ASSAY METHOD TEXT: NCI tumour cell line growth inhibition, 48 h
Counter-ions that a name gives are not always drawn. Active and inactive are the calls of the source. No stated cut-off is given here; in the data, active = GI50 up to about 1.1 µM and inactive = higher.
Result category, one only: active, inactive

The following molecules have reported results that may help.
1. O=C1C(O)=C(C(C2=C(O)C(=O)c3ccccc3C2=O)c2ccc(Cl)cc2)C(=O)c2ccccc21; inactive
2. NC(=O)[C@H](Cc1ccc(O)cc1)NC1=C(Cl)C(=O)c2c(O)ccc(O)c2C1=O; inactive
3. COc1c(Br)cc(CC(N)=O)c(O)c1Br; inactive
4. Cc1nc2ccccc2n1C(=O)c1c(F)c(F)c(F)c(F)c1F; inactive
5. CC(=O)Nc1ccc(C2[C@H]3C(=O)N(c4ccc(Cc5ccc(N6C(=O)[C@@H]7ON(c8ccccc8)C(c8ccc(NC(C)=O)cc8)[C@@H]7C6=O)cc5)cc4)C(=O)[C@H]3ON2c2ccccc2)cc1 (stereo partly drawn); inactive

Lookup: What did the test return for CC/C(=C(\c1ccccc1)c1ccc(OCCN(C)C)cc1)c1ccccc1 [TAMOXIFEN CITRATE] ?
Found: inactive

Lookup: What did the test return for "c1ccc(NN/N=N/c2ccc(-c3nc4ccccc4[nH]3)cc2)cc1" ?
Found: inactive

Lookup: What did the test return for C1=NN(Cc2ccccc2)C(N(Cc2ccccc2)Cc2ccccc2)N1 (stereo not drawn) ?
Found: inactive

Lookup: What did the test return for "C/C(=C\CO)CC/C=C(\C)CNc1ccccc1" ?
Found: inactive

Lookup: What did the test return for COc1cc(O)c(C(=O)/C=C/c2ccc(O)cc2)cc1Oc1ccc(/C=C/C(=O)c2ccc(O)cc2O)cc1 [RHUSCHALCONE III] ?
Found: inactive

Lookup: What did the test return for COC(=O)c1cc2c(cc1C(=O)OC)[C@@]1(C)CCCC(C)(C)C1CC2 (stereo partly drawn) ?
Found: inactive

Lookup: What did the test return for "CCCCCCCCCCCCCCCCP(=O)(OC)OC" ?
Found: inactive

Lookup: What did the test return for O=C(O)C12CCCCC1CCCC2 (stereo not drawn) ?
Found: inactive

Lookup: What did the test return for "CCCCCCn1c(SCC)c2ccccc2c1-c1nc(F)nc(F)n1" ?
Found: inactive

---

- System: DU-145
- ASSAY METHOD TEXT: NCI tumour cell line growth inhibition, 48 h
The source made the active and inactive calls. Cut-off read from the data, not from the text of the source: active = GI50 up to about 1.1 µM and inactive = higher.
Reported GI50 values for a set of compounds

Solved cases (2 shown):
1) O=C1C(O)=C(C(C2=C(O)C(=O)c3ccccc3C2=O)c2ccc(Cl)cc2)C(=O)c2ccccc21; 5.42 µM (inactive)
2) C(=N\c1ccc(-c2nc3ccccc3s2)cc1)/c1cccs1; 69.8 µM (inactive)

Lookup: // lookup GI50 for "CC(=O)Nn1c(Cc2ccc(Cl)cc2)nn(C)c1=O"
Found: > 100 µM (inactive)

Lookup: // lookup GI50 for Cc1ccc(C)c(NC(=O)C(=O)C(c2cnc3ccc([N+](=O)[O-])cc3n2)[N+](=O)[O-])c1 (configuration not stated)
Found: 77.4 µM (inactive)

Lookup: // lookup GI50 for "CNC(=O)N(CCC#N)[C@H]1CCCC[C@@H]1N(C(=O)NC)c1ccccc1"
Found: > 100 µM (inactive)
